- testSystem: T1, AFP158/HLA-A*02:01 complex (human)
- T1 construct: flowed as analyte in SPR
- protocol: SPR, fold vs AS170036 VL1VH1;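 further: crude scFv muteins immobilised on a sensor chip, peptide–MHC complex passed over at several concentrations, binding then buffer-driven dissociation, KD estimated from on- and off-rates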
Some binders, each annotated with its measured Affinity increase.
Give a bare numeral; the unit fold is implied.

Consider the worked cases shown below.
AS170036 VL1VH1-57H108S (scFv, also called 24-AS170036 VL1VH1-57H108S) scFv: QSALTQPRSVSGSPGQSVTISCAGTSSDVGSENYVSWYQQHPGKAPKLMIYQVNKRASGVPDRFSGSKSGNTASLTISGLQAEDEADYYCASYRSSDHNIVFGGGTKLTVLGGGGSGGGGSGGGGSEVQLVESGGGLVQPGGSLRLSCAASGFTFSSYAMSWVRQAPGKGLEWVSTINSGTGHPYYADSVKGRFTISRDNSKNTLYLQMNSLRAEDTAVYYCAKNFFDGSWFLSPPAMDYWGQGTLVTVSSHHHHHH :: 14.2
AS170036 VL1VH1-98F108A (scFv, also called 31-AS170036 VL1VH1-98F108A) scFv: QSALTQPRSVSGSPGQSVTISCAGTSSDVGSENYVSWYQQHPGKAPKLMIYQVNKRASGVPDRFSGSKSGNTASLTISGLQAEDEADYYCASYRSSDFNIVFGGGTKLTVLGGGGSGGGGSGGGGSEVQLVESGGGLVQPGGSLRLSCAASGFTFSSYAMSWVRQAPGKGLEWVSTINSGTGSPYYADSVKGRFTISRDNSKNTLYLQMNSLRAEDTAVYYCAKNFFDGSWFLAPPAMDYWGQGTLVTVSSHHHHHH :: 19.1
AS170036 VL1VH1-57K98Q (scFv, also called 12-AS170036 VL1VH1-57K98Q) scFv: QSALTQPRSVSGSPGQSVTISCAGTSSDVGSENYVSWYQQHPGKAPKLMIYQVNKRASGVPDRFSGSKSGNTASLTISGLQAEDEADYYCASYRSSDQNIVFGGGTKLTVLGGGGSGGGGSGGGGSEVQLVESGGGLVQPGGSLRLSCAASGFTFSSYAMSWVRQAPGKGLEWVSTINSGTGKPYYADSVKGRFTISRDNSKNTLYLQMNSLRAEDTAVYYCAKNFFDGSWFLGPPAMDYWGQGTLVTVSSHHHHHH :: 13.9
AS170036 VL1VH1-56N98I (scFv, also called 05-AS170036 VL1VH1-56N98I) scFv: QSALTQPRSVSGSPGQSVTISCAGTSSDVGSENYVSWYQQHPGKAPKLMIYQVNKRASGVPDRFSGSKSGNTASLTISGLQAEDEADYYCASYRSSDINIVFGGGTKLTVLGGGGSGGGGSGGGGSEVQLVESGGGLVQPGGSLRLSCAASGFTFSSYAMSWVRQAPGKGLEWVSTINSGTNSPYYADSVKGRFTISRDNSKNTLYLQMNSLRAEDTAVYYCAKNFFDGSWFLGPPAMDYWGQGTLVTVSSHHHHHH :: 10.7

Note: attention shifts to another entry.
Quick note, Affinity increase for AS170036 VL1VH1-57K98I (scFv, also called 11-AS170036 VL1VH1-57K98I) scFv: QSALTQPRSVSGSPGQSVTISCAGTSSDVGSENYVSWYQQHPGKAPKLMIYQVNKRASGVPDRFSGSKSGNTASLTISGLQAEDEADYYCASYRSSDINIVFGGGTKLTVLGGGGSGGGGSGGGGSEVQLVESGGGLVQPGGSLRLSCAASGFTFSSYAMSWVRQAPGKGLEWVSTINSGTGKPYYADSVKGRFTISRDNSKNTLYLQMNSLRAEDTAVYYCAKNFFDGSWFLGPPAMDYWGQGTLVTVSSHHHHHH landed at 9.1
